Kindly supply the reported protein stability index values for the records listed here.
B1: ZNF449 (parent)
chain: CTHCSKSFRQRAGLIMHQVTHFRG

- Variants of: B1
- assay.details: protein stability index of a GFP-peptide fusion (GPS, HEK-293T) (PSI 1-6); higher = more stable;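 note: lentivirally expressed fusions sorted by FACS into six bins by GFP to DsRed ratio, PSI derived from sequencing read proportions per bin multiplied by bin number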
- assay.setup: c terminus: a fixed tail appended
Numbers only.

mutation.key	protein stability index
V19P	1.76

// each listed variant needs a value for protein stability index
1. V19L
2. H21M
3. V19A

Reply:
1: 2.92; 2: 2.56; 3: 2.01
